experiment: Aqueous solubility of compound; type: physicochemical
Readout: solubility (µg/mL)
# number only, unit µg/mL dropped from output

Q. Request the reported solubility associated with Cc1ccc(-c2ccc3ncc(-c4nnco4)c(NCCCn4ccnc4)c3c2)cc1
A. 0.3

====

assay: Lipophilicity, logD of the compound at pH 7.4; assay type: physicochemical; conditions: buffer
Readout: logD

Q. Request the reported logD associated with Cc1ccc(-c2ccc3ncc(-c4nnco4)c(NCCCn4ccnc4)c3c2)cc1
A. > 3.5
